The following molecules have recorded Ki on UniProt P34972.
Sequence (P34972 whole entry): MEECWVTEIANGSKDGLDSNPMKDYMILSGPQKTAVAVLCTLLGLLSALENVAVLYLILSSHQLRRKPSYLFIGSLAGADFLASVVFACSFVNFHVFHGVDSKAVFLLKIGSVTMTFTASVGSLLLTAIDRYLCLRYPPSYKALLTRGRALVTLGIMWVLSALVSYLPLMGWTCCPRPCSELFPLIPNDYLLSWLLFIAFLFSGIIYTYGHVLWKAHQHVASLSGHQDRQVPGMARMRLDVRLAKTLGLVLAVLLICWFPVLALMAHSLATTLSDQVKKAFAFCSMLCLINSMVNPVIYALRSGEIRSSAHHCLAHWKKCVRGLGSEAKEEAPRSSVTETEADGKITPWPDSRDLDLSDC
Endpoint Name: Ki (µM)

In the examples that follow, each entry is paired with its recorded Ki.
Cc1ccc(C2c3cccn3-c3ccccc3N2C(=O)CN(C(=O)C2CCCC2)C2CC2)cc1 (centres undefined): 10
COc1ccc(C2c3cccn3-c3ccccc3N2C(=O)CN(C(=O)NC(C)(C)C)C(C)C)cc1 (centres undefined): 4.95

I: COc1cccc(N2C(C(C)=O)=NN(c3ccc(Cl)cc3)C2c2ccc(N3CCOCC3)cc2)c1 (centres undefined)
II: Cc1cc(C)c(OCC(=O)Nc2sc3c(c2C(=O)NC2CCS(=O)(=O)C2)CCCC3)c(C)c1 (centres undefined)
Inquiry: Lowest Ki? choose I or II Select an item and report its label.
Reply text: II
(II: 0.058 µM, I: 3.92 µM)

The reported measurements were obtained from ChEMBL document CHEMBL1152367.
